Test details: Half life in mouse plasma
Type: ADME, cell-free
Entries and their measured half-life follow.

Use these answered entries as a reference point.
Molecule: CC1CC(OC(=O)C(O)c2ccccc2)CC(C)(C)N1C (centres undefined)
Reported result: 2.11 h
//
Molecule: O=C(Cc1ccccc1)Nc1ccc(-c2nc3cc(NC(=O)Cc4ccccc4)ccc3[nH]2)cc1
Reported result: > 48 h
//
Molecule: CC(C)C(=O)Nc1ccc2oc(-c3ccc(C(C)(C)C)cc3)nc2c1
Reported result: > 48 h

I have this molecule here, Cc1ccc(S(=O)(=O)Cc2nc(-c3ccc(C(=O)NCc4cccnc4)cc3)oc2C)cc1 , and I need its recorded half-life.
> 48 h

Reference source: ChEMBL document CHEMBL4422630
